src = paper PMC10435442

test: in vitro; settings: human, MCF-10A cells (nonmalignant breast);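 also: MTT assay with absorbance read at 570 nm after 48 h exposure of cells to serial compound concentrations at 37 °C, testing selectivity against nonmalignant versus cancer cells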
measuredEndpoint: viability at 48 h, 1.6 ug (%)
Unit % implied. Number only.

Please report the recorded viability at 48 h, 1.6 ug for COc1cccc2c1C(=O)c1c(O)c3c(c(O)c1C2=O)C[C@@](O)(C(=O)CO)C[C@@H]3O[C@H]1C[C@H](N)[C@H](O)[C@H](C)O1 [Doxorubicin, reference compound] .
63.5

Queued: CC(=O)Oc1ccc2c(COC(=O)c3ccccc3)cc(=O)oc2c1 [Compound 13]
81.1

Queued: O=C(COc1ccc2c(CCl)cc(=O)oc2c1)c1ccc(Cl)cc1 [Compound 6]
70.4

Queued: CC(=O)Oc1ccc2c(COC(=O)c3ccc(Cl)cc3)cc(=O)oc2c1 [Compound 14]
77.6

Queued: O=C(OCc1cc(=O)oc2cc(O)ccc12)c1ccccc1 [Compound 2]
77.2

Queued: COc1ccccc1C(=O)OCc1cc(=O)oc2cc(OC(C)=O)ccc12 [Compound 15]
78.2
